Data origin: PubChem BioAssay AID1745844

Tested on: rodent lifetime carcinogenesis bioassay, tumor incidence TD50
Assay: carcinogenic potency in animals, long-term in vivo studies, CPDB compilation (AID 1745844)
Conditions: mouse; strain B6C3F1; females; in feed; site: liver; lesion: hepatocellular adenoma + hepatocellular carcinoma + neoplastic nodule; dosed 80 weeks; study length 91 weeks
quantity-kind: TD50 (mg/kg/day)
Quick reminder: number only, in mg/kg/day, skip the unit.

TD50 reading for ClC1=C(Cl)[C@]2(Cl)[C@@H]3[C@@H]4C[C@@H]([C@H]5O[C@@H]45)[C@@H]3[C@@]1(Cl)C2(Cl)Cl : 1.09

====

System: rodent lifetime carcinogenesis bioassay, tumor incidence TD50
Experiment: carcinogenic potency in animals, long-term in vivo studies, CPDB compilation (AID 1745844)
Conditions: rat; strain Charles River; males; in drinking water; site: liver; lesion: neoplastic nodule; dosed 113 weeks; study length 113 weeks
quantity-kind: TD50 (mg/kg/day)
Quick reminder: number only, in mg/kg/day, skip the unit.

TD50 reading for C/C=C/C=O : 4.2

====

System: rodent lifetime carcinogenesis bioassay, tumor incidence TD50
Assay: carcinogenic potency in animals, long-term in vivo studies, CPDB compilation (AID 1745844)
Settings: rat; strain F344/DuCrj; males; in feed; site: colon; lesion: adenocarcinoma; dosed 67 weeks; study length 67 weeks
quantity-kind: TD50

TD50 reading for Cc1cccn2c1nc1ccc(N)nc12 : 16.9 mg/kg/day

====

System: rodent lifetime carcinogenesis bioassay, tumor incidence TD50
Assay: carcinogenic potency in animals, long-term in vivo studies, CPDB compilation (AID 1745844)
Conditions: rat; strain Fischer 344; females; in feed; site: liver; lesion: hepatocellular adenoma + hepatocellular carcinoma + neoplastic nodule; dosed 108 weeks; study length 108 weeks
quantity-kind: TD50 (mg/kg/day)
Quick reminder: number only, in mg/kg/day, skip the unit.

I looked up C[N+](C)(C)CCCl and its TD50 for rodent lifetime carcinogenesis bioassay, tumor incidence TD50 was 8090

====

Tested on: rodent lifetime carcinogenesis bioassay, tumor incidence TD50
Test: carcinogenic potency in animals, long-term in vivo studies, CPDB compilation (AID 1745844)
Conditions: mouse; strain B6C3F1; females; by gavage; site: liver; lesion: hepatocellular adenoma; dosed 103 weeks; study length 104 weeks
Provide the reported TD50 of each item.

TD50 reading for ClCC(Cl)(Cl)Cl : 254 mg/kg/day

TD50 reading for O=c1ccc2ccccc2o1 : 72.8 mg/kg/day

TD50 reading for O=Cc1ccco1 : 364 mg/kg/day

TD50 reading for ClC(Cl)C(Cl)(Cl)Cl : 153 mg/kg/day

TD50 reading for O=C1CCc2ccccc2O1 : 790 mg/kg/day

TD50 reading for CCCN(CCC)S(=O)(=O)c1ccc(C(=O)O)cc1 : 561 mg/kg/day

TD50 reading for c1ccc2occc2c1 : 34.4 mg/kg/day

====

System: rodent lifetime carcinogenesis bioassay, tumor incidence TD50
Experiment: carcinogenic potency in animals, long-term in vivo studies, CPDB compilation (AID 1745844)
Conditions: rat; strain Sprague-Dawley; males; by gavage; site: any site (literature study); lesion: several types; types named in the paper; dosed 104 weeks; study length 104 weeks
quantity-kind: TD50 (mg/kg/day)
Quick reminder: number only, in mg/kg/day, skip the unit.

TD50 reading for CC(C(O)c1ccccc1)N(C)N=O (stereo unspecified) : 40

====

Tested on: rodent lifetime carcinogenesis bioassay, tumor incidence TD50
Assay: carcinogenic potency in animals, long-term in vivo studies, CPDB compilation (AID 1745844)
Conditions: rat; strain Charles River CD (Sprague-Dawley); males; i.p.; site: all sites; lesion: lymphosarcoma; dosed 26 weeks; study length 78 weeks
Numbered stars: 1 amine (or outer) side, 2 acyl side, 3 side chain; on linkers, the order of the positions; unused ones are H or OH. Bridge positions count the residues as written; N and C are the ends. Square brackets hold non-standard residues; d marks the D form. Peptide text beside a SMILES is read from it. I, II: the chains in the order shown. Actinocin(9to1) = Cc1c2oc3c(C)ccc(C(=O)[*:1])c3nc-2c(C(=O)[*:2])c(N)c1=O; NMeV = CN[C@H](C(=O)O)C(C)C; Sar = CNCC(=O)O
quantity-kind: TD50 (mg/kg/day)
Quick reminder: number only, in mg/kg/day, skip the unit.

TD50 reading for Cc1c2oc3c(C)ccc(C(=O)N[C@@H]4C(=O)N[C@H](C(C)C)C(=O)N5CCC[C@H]5C(=O)N(C)CC(=O)N(C)[C@@H](C(C)C)C(=O)O[C@@H]4C)c3nc-2c(C(=O)N[C@@H]2C(=O)N[C@H](C(C)C)C(=O)N3CCC[C@H]3C(=O)N(C)CC(=O)N(C)[C@@H](C(C)C)C(=O)O[C@@H]2C)c(N)c1=O (I: T[dV]P[Sar][NMeV] / II: T[dV]P[Sar][NMeV]; ester I:1-I:C, II:1-II:C; linker I:N-II:N via Actinocin(9to1)) : 0.0201

TD50 reading for O[C@H]([C@H](O)[C@@H](O)CBr)[C@H](O)CBr : 182
